Reference source: PubChem BioAssay AID1963966

System: 935938-334-R-J1-PDC spheroids with HUVEC/MSC, viability
measurement.protocol: Anticancer human tumor 935938-334-R-J1-PDC patient-derived small intestine adenocarcinoma cell line growth inhibition [PI3K]
condition.summary: second compound 0.316 µM; first compound 0.01 µM; stronger effect = lower value
Excerpt: Combinatorial screen of targeted agents with the PI3K inhibitors inavolisib, alpelisib, duvelisib, and copanlisib in multi-cell type tumor spheroids A high-throughput screen of multi-cell type tumor spheroids was designed to identify active combinations of targeted small molecules and PI3K pathway inhibitors. […] Compounds. […] If the clinical Cmax for an agent had not been determined, the highest concentration tested was 10 microM. […]
Recorded viability, T/C determines the label; the label ranges are category 1 (below 50%), category 2 (50% to below 70%), category 3 (70% or more)

Input: In plain terms, what class is CC(C)n1nc(-c2ccc3oc(N)nc3c2)c2c(N)ncnc21 + CC(Nc1ccc2c(c1)OCCn1cc(N3C(=O)OCC3C(F)F)nc1-2)C(N)=O ?
Output: category 2

Input: In plain terms, what class is CC(C)n1nc(-c2ccc3oc(N)nc3c2)c2c(N)ncnc21 + COc1c(OCCCN2CCOCC2)ccc2c3n(c(=NC(=O)c4cnc(N)nc4)nc12)CCN3 ?
Output: category 1

Input: In plain terms, what class is Cn1ncnc1[C@H]1c2n[nH]c(=O)c3cc(F)cc(c23)N[C@@H]1c1ccc(F)cc1 + CC(Nc1ncnc2nc[nH]c12)c1cc2cccc(Cl)c2c(=O)n1-c1ccccc1 ?
Output: category 3

Input: In plain terms, what class is CC(C)n1nc(-c2ccc3oc(N)nc3c2)c2c(N)ncnc21 + Cc1nc(NC(=O)N2CCCC2C(N)=O)sc1-c1ccnc(C(C)(C)C(F)(F)F)c1 ?
Output: category 2

Input: In plain terms, what class is CC(=O)c1c(C)c2cnc(Nc3ccc(N4CCNCC4)cn3)nc2n(C2CCCC2)c1=O + Cc1nc(NC(=O)N2CCCC2C(N)=O)sc1-c1ccnc(C(C)(C)C(F)(F)F)c1 ?
Output: category 3

* * *

Parameter: viability, T/C. Scope: all listed entries.
Test system: 935938-334-R-J1-PDC spheroids with HUVEC/MSC, viability
measurement.protocol: Anticancer human tumor 935938-334-R-J1-PDC cell line growth inhibition [PI3K];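 also: compound exposure lasted seven days before viability was read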;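 as to viability, T/C: percent of vehicle DMSO treated spheroid viability so 100% = untreated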
condition.summary: second compound 0.1 µM; first compound 3 µM; stronger effect = lower value
Your answer is read as %, so omit the unit and give the number.

| compound | viability, T/C [%] |
| --- | --- |
| Cn1cnc2c(F)c(Nc3ccc(Br)cc3Cl)c(C(=O)NOCCO)cc21 + CC(Nc1ccc2c(c1)OCCn1cc(N3C(=O)OCC3C(F)F)nc1-2)C(N)=O | 18.3 |
| Cn1cnc2c(F)c(Nc3ccc(Br)cc3Cl)c(C(=O)NOCCO)cc21 + Cc1nc(NC(=O)N2CCCC2C(N)=O)sc1-c1ccnc(C(C)(C)C(F)(F)F)c1 | 17.2 |
| Cn1cnc2c(F)c(Nc3ccc(Br)cc3Cl)c(C(=O)NOCCO)cc21 + COc1c(OCCCN2CCOCC2)ccc2c3n(c(=NC(=O)c4cnc(N)nc4)nc12)CCN3 | 14.1 |

Now look at this one.
Input: May I ask what viability, T/C has been recorded for Cn1cnc2c(F)c(Nc3ccc(Br)cc3Cl)c(C(=O)NOCCO)cc21 + CC(Nc1ncnc2nc[nH]c12)c1cc2cccc(Cl)c2c(=O)n1-c1ccccc1 ?
Output: 20.8

* * *

Tested on: 935938-334-R-J1-PDC spheroids with HUVEC/MSC, viability
measurement.protocol: Anticancer human tumor 935938-334-R-J1-PDC cell line growth inhibition [PI3K];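 also: compound exposure lasted seven days before viability was read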;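 as to viability, T/C: percent of vehicle DMSO treated spheroid viability so 100% = untreated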
condition.summary: second compound 0.1 µM; first compound 0.0316 µM; stronger effect = lower value
Source text: Combinatorial screen of targeted agents with the PI3K inhibitors inavolisib, alpelisib, duvelisib, and copanlisib in multi-cell type tumor spheroids A high-throughput screen of multi-cell type tumor spheroids was designed to identify active combinations of targeted small molecules and PI3K pathway inhibitors. […] Compounds. […] If the clinical Cmax for an agent had not been determined, the highest concentration tested was 10 microM. […]
Lab note: anything with viability, T/C below 90% is marked YES; values at 90% or higher are marked NO.

| molecule | qualitative.label |
| --- | --- |
| C[C@@H](NC(=O)c1ncnc(N)c1Cl)c1ncc(C(=O)Nc2cc(C(F)(F)F)c(Cl)cn2)s1 + Cc1nc(NC(=O)N2CCCC2C(N)=O)sc1-c1ccnc(C(C)(C)C(F)(F)F)c1 | NO |
| CC(Cn1ccc(-c2ccc(C#N)c(Cl)c2)n1)NC(=O)c1cc(C(C)O)[nH]n1 (stereo unspecified) + Cc1nc(NC(=O)N2CCCC2C(N)=O)sc1-c1ccnc(C(C)(C)C(F)(F)F)c1 | NO |

Input: Consider C=CC(=O)N1CCN(c2nc(=O)n(-c3c(C)ccnc3C(C)C)c3nc(-c4c(O)cccc4F)c(F)cc23)C(C)C1 (stereo unspecified) + CC(Nc1ncnc2nc[nH]c12)c1cc2cccc(Cl)c2c(=O)n1-c1ccccc1 . Does its viability, T/C lie strictly below 90%?
Output: NO

Input: Consider CC(Cn1ccc(-c2ccc(C#N)c(Cl)c2)n1)NC(=O)c1cc(C(C)O)[nH]n1 (stereo unspecified) + CC(Nc1ccc2c(c1)OCCn1cc(N3C(=O)OCC3C(F)F)nc1-2)C(N)=O . Does its viability, T/C lie strictly below 90%?
Output: YES

Input: Consider CC1(C)CCC(Nc2ncc(C(F)(F)F)c(-c3c[nH]c4c(P(C)(C)=O)c(C#N)ccc34)n2)CN1 (stereo unspecified) + Cc1nc(NC(=O)N2CCCC2C(N)=O)sc1-c1ccnc(C(C)(C)C(F)(F)F)c1 . Does its viability, T/C lie strictly below 90%?
Output: YES

Input: Consider Cn1ncc(Cl)c1-c1cc(C(=O)NC(CN)Cc2cccc(F)c2)sc1Cl (stereo unspecified) + Cc1nc(NC(=O)N2CCCC2C(N)=O)sc1-c1ccnc(C(C)(C)C(F)(F)F)c1 . Does its viability, T/C lie strictly below 90%?
Output: NO

Input: Consider Cn1ncnc1[C@H]1c2n[nH]c(=O)c3cc(F)cc(c23)N[C@@H]1c1ccc(F)cc1 + Cc1nc(NC(=O)N2CCCC2C(N)=O)sc1-c1ccnc(C(C)(C)C(F)(F)F)c1 . Does its viability, T/C lie strictly below 90%?
Output: YES

* * *

Parameter: pIC50. Scope: all listed entries.
System: 935938-334-R-J1-PDC spheroids with HUVEC/MSC, viability
measurement.protocol: Anticancer human tumor 935938-334-R-J1-PDC cell line growth inhibition [PI3K];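 also: compound exposure lasted seven days before viability was read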
condition.summary: curve of first compound; second compound 1 µM
pIC50: −log10 of the molar value.

| compound | pIC50 |
| --- | --- |
| CC(=O)c1c(C)c2cnc(Nc3ccc(N4CCNCC4)cn3)nc2n(C2CCCC2)c1=O + COc1c(OCCCN2CCOCC2)ccc2c3n(c(=NC(=O)c4cnc(N)nc4)nc12)CCN3 | > 9.50 |
| CCN1CCN(Cc2ccc(Nc3ncc(F)c(-c4cc(F)c5nc(C)n(C(C)C)c5c4)n3)nc2)CC1 + CC(Nc1ccc2c(c1)OCCn1cc(N3C(=O)OCC3C(F)F)nc1-2)C(N)=O | > 8.50 |

Now look at this one.
Input: May I ask what pIC50 has been recorded for CC1(C)CCC(Nc2ncc(C(F)(F)F)c(-c3c[nH]c4c(P(C)(C)=O)c(C#N)ccc34)n2)CN1 (stereo not drawn) + CC(Nc1ncnc2nc[nH]c12)c1cc2cccc(Cl)c2c(=O)n1-c1ccccc1 ?
Output: > 7.50

* * *

Test system: 935938-334-R-J1-PDC spheroids with HUVEC/MSC, viability
measurement.protocol: Anticancer human tumor 935938-334-R-J1-PDC cell line growth inhibition [PI3K];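 also: compound exposure lasted seven days before viability was read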;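 as to viability, T/C: percent of vehicle DMSO treated spheroid viability so 100% = untreated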
condition.summary: second compound 0.1 µM; first compound 0.0316 µM; stronger effect = lower value
observation.type: viability, T/C (%)
Your answer is read as %, so omit the unit and give the number.

| compound | target.entity | viability, T/C (%) |
| --- | --- | --- |
| CCN1CCN(Cc2ccc(Nc3ncc(F)c(-c4cc(F)c5nc(C)n(C(C)C)c5c4)n3)nc2)CC1 + CC(Nc1ccc2c(c1)OCCn1cc(N3C(=O)OCC3C(F)F)nc1-2)C(N)=O | 935938-334-R-J1-PDC spheroids with HUVEC/MSC, viability | 51.3 |
| CC(C)NCC(C(=O)N1CCN(c2ncnc3c2C(C)CC3O)CC1)c1ccc(Cl)cc1 (stereo unspecified) + COc1c(OCCCN2CCOCC2)ccc2c3n(c(=NC(=O)c4cnc(N)nc4)nc12)CCN3 | 935938-334-R-J1-PDC spheroids with HUVEC/MSC, viability | 48.3 |
| Cn1nccc1Nc1nccc(-c2ccn(C(CO)c3ccc(Cl)c(F)c3)c(=O)c2)n1 (stereo unspecified) + CC(Nc1ncnc2nc[nH]c12)c1cc2cccc(Cl)c2c(=O)n1-c1ccccc1 | 935938-334-R-J1-PDC spheroids with HUVEC/MSC, viability | 99.6 |
| CC(=O)c1c(C)c2cnc(Nc3ccc(N4CCNCC4)cn3)nc2n(C2CCCC2)c1=O + CC(Nc1ncnc2nc[nH]c12)c1cc2cccc(Cl)c2c(=O)n1-c1ccccc1 | 935938-334-R-J1-PDC spheroids with HUVEC/MSC, viability | 91.5 |
| CCCS(=O)(=O)Nc1ccc(F)c(C(=O)c2c[nH]c3ncc(-c4ccc(Cl)cc4)cc23)c1F + COc1c(OCCCN2CCOCC2)ccc2c3n(c(=NC(=O)c4cnc(N)nc4)nc12)CCN3 | 935938-334-R-J1-PDC spheroids with HUVEC/MSC, viability | 61.8 |

Input: May I ask what viability, T/C has been recorded for CC1(C)CCC(CN2CCN(c3ccc(C(=O)NS(=O)(=O)c4ccc(NCC5CCOCC5)c([N+](=O)[O-])c4)c(Oc4cnc5[nH]ccc5c4)c3)CC2)=C(c2ccc(Cl)cc2)C1 + COc1c(OCCCN2CCOCC2)ccc2c3n(c(=NC(=O)c4cnc(N)nc4)nc12)CCN3 ?
Output: 66.5

Input: May I ask what viability, T/C has been recorded for CCCS(=O)(=O)Nc1ccc(F)c(C(=O)c2c[nH]c3ncc(-c4ccc(Cl)cc4)cc23)c1F + CC(Nc1ncnc2nc[nH]c12)c1cc2cccc(Cl)c2c(=O)n1-c1ccccc1 ?
Output: 88.2

Input: May I ask what viability, T/C has been recorded for CC1(C)CCC(Nc2ncc(C(F)(F)F)c(-c3c[nH]c4c(P(C)(C)=O)c(C#N)ccc34)n2)CN1 (stereo unspecified) + CC(Nc1ccc2c(c1)OCCn1cc(N3C(=O)OCC3C(F)F)nc1-2)C(N)=O ?
Output: 36.8

Input: May I ask what viability, T/C has been recorded for CC(C)n1nc(-c2ccc3oc(N)nc3c2)c2c(N)ncnc21 + Cc1nc(NC(=O)N2CCCC2C(N)=O)sc1-c1ccnc(C(C)(C)C(F)(F)F)c1 ?
Output: 68.7

Input: May I ask what viability, T/C has been recorded for CC(Cn1ccc(-c2ccc(C#N)c(Cl)c2)n1)NC(=O)c1cc(C(C)O)[nH]n1 (stereo unspecified) + COc1c(OCCCN2CCOCC2)ccc2c3n(c(=NC(=O)c4cnc(N)nc4)nc12)CCN3 ?
Output: 40.6

Input: May I ask what viability, T/C has been recorded for CC(C)n1nc(-c2ccc3oc(N)nc3c2)c2c(N)ncnc21 + CC(Nc1ccc2c(c1)OCCn1cc(N3C(=O)OCC3C(F)F)nc1-2)C(N)=O ?
Output: 57.3
